Molecular target: Androgen receptor (Homo sapiens, UniProt P10275)
Assay: Antagonist activity at androgen receptor in human LNCaP cells incubated for 24 hrs by luminescence based firefly luciferase assay
OBSERVABLE: pIC50
FYI, pIC50 means -log10 of a concentration in mol per litre.

Quick one: pIC50 for CCc1cccc(NS(=O)(=O)c2cc3c4c(c2)CCC(=O)N4CCC3)c1 ?
6.40

====

Target: Androgen receptor (Homo sapiens)
Sequence (P10275 whole entry): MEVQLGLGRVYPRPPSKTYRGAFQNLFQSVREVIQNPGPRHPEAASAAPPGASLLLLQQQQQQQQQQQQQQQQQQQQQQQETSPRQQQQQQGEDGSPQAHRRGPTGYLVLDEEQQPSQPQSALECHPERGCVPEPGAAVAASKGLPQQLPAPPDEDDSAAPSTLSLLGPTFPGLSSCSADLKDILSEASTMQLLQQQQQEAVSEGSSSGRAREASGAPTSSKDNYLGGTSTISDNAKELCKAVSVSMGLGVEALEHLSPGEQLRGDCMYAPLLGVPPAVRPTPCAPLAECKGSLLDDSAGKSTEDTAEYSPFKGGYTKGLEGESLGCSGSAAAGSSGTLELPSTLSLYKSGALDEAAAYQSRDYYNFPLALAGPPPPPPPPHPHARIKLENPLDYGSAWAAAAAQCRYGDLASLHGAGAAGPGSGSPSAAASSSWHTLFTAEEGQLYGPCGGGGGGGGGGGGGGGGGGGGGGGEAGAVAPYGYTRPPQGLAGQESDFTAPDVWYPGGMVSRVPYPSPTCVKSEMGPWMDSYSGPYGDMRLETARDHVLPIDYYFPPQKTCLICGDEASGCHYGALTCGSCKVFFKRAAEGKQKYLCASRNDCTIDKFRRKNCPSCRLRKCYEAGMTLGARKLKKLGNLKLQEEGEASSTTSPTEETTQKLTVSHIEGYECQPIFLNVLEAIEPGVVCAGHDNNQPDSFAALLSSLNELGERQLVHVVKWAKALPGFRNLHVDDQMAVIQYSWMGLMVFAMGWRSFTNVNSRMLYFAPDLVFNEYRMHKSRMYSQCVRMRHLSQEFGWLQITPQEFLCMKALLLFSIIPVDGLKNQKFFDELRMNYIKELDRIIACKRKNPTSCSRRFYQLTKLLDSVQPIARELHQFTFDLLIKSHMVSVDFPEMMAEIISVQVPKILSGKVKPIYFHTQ
Known pIC50 of a selection of compounds
Note on pIC50: it is the negative log10 of concentration, concentration in mol/L.

Study these solved cases before continuing.
SMILES ENTRY: CCOC(=O)c1ccc(NC(=O)c2ccc(S(=O)(=O)Nc3ccc(C)cc3)cc2)s1
OBSERVABLE: pIC50
DATA VALUE: 6.92
--
SMILES ENTRY: O=C(Nc1ccc(C(=O)NC23C[C@H]4C[C@H](C2)C[C@@H](C3)C4)s1)c1cccc(S(=O)(=O)N2CCCc3ccccc32)c1
OBSERVABLE: pIC50
DATA VALUE: 6.92

Dear colleague, I am looking for the recorded pIC50 of the following compound: CCOC(=O)c1ccc(NC(=O)c2cccc(S(=O)(=O)N3CCCc4ccccc43)c2)s1
5.77

What do we get for O=C(Nc1ccc(C(=O)NC2CC2)s1)c1cccc(S(=O)(=O)N2CCCc3ccccc32)c1 ?
6.70

====

Assay: Antiproliferative activity against African green monkey COS-7 cells assessed as reduction in cell viability measured after 72 hrs by CCK-8 method
Settings: chlorocebus aethiops
# key: entry, value: CC50 at 72 h

Which CC50 at 72 h is listed for CC(O)c1cc(C(=O)N[C@@H](C)Cn2ccc(-c3ccc(C#N)c(Cl)c3)n2)n[nH]1 (some centres not stated) [DAROLUTAMIDE] ?
> 50 µM

Queued: CNC(=O)c1ccc(N2C(=S)N(c3cnc(C#N)c(C(F)(F)F)c3)C(=O)C23CCC3)cc1F [APALUTAMIDE]
> 50 µM
